Measured normalized growth, listed per entry.
Experiment: chemical genetic growth profiling, strain panel (AID 1159580);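 also: tested at 20 µM; growth read once vehicle control cultures reached saturation at 30 °C; 1 = growth at the plate median or of vehicle wells; lower values mean less growth of the strain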
Details: S. cerevisiae deletion strains, growth OD, locus YNL233W, strain BNI4, hits give low values
Out of some 5,500 compounds screened, about 2,000 (36%) were called active. Another 18% or so got no clear call; they are omitted. Some of the results follow.
RESULT TYPE: normalized growth

• O=C(O)CC[N+](=O)[O-] = 1
• CC(=O)OC[C@@]1(O)C[C@@]23CCC4c5ccoc5CC[C@]4(C)C2CC[C@@H]1C3 (stereo partly specified) = 0.947
• C[N+]12CCC(CC1)C(OC(=O)C(O)(c1ccccc1)c1ccccc1)C2 (stereo unspecified) = 0.978
• C/C(=C\CO)CC[C@H](C)CCC[C@H](C)CCCC(C)C = 1.07
• C=C(C)C1Cc2c(ccc3c(=O)c4c(oc23)COc2cc(OC)c(OC)cc2-4)O1 (stereo unspecified) = 1.03
• CN1CCC[C@H]1c1cccnc1 = 1.01

---

Test: chemical genetic growth profiling, strain panel (AID 1159580);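 also: tested at 20 µM; growth read once vehicle control cultures reached saturation at 30 °C; 1 = growth at the plate median or of vehicle wells; lower values mean less growth of the strain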
Details: S. cerevisiae deletion strains, growth OD, locus YLR058C, strain SHM2 (second series), hits give low values
Hit rate of the full screen: of about 5,500 compounds, about 2,000 (36%) were called active. Roughly 18% stayed inconclusive and do not appear here. Some of the results follow.
RESULT TYPE: normalized growth

• O=C1c2ccccc2C(=O)N1CNc1cccc(Cl)c1 = 1 (inactive)
• CCCCC#Cc1ccc(C(=O)NNC(=O)Nc2cc(Cl)cc(Cl)c2)o1 = 1.01 (inactive)
• CC(=O)c1ccc(Sc2ccccn2)c([N+](=O)[O-])c1 = 0.991 (inactive)
• O=C(O)c1ccccc1Sc1c(C(=O)O)cc([N+](=O)[O-])cc1[N+](=O)[O-] = 0.994 (inactive)
• O=C(NNC(=O)c1ccc[nH]1)Nc1cc(Cl)cc(Cl)c1 = 1.01 (inactive)
• Cc1cc(NC(=O)Nc2cccc(C(F)(F)F)c2)n(C)n1 = 1.01 (inactive)

---

Assay: chemical genetic growth profiling, strain panel (AID 1159580);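 also: tested at 20 µM; growth read once vehicle control cultures reached saturation at 30 °C; 1 = growth at the plate median or of vehicle wells; lower values mean less growth of the strain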
Details: S. cerevisiae deletion strains, growth OD, locus YCL061C, strain MRC1, hits give low values
Out of some 5,500 compounds screened, about 2,000 (36%) were called active. About 18% were inconclusive and are not listed. Some of the results follow.
RESULT TYPE: normalized growth

- O=C1C=C(O)c2ccccc2C1=O: 0.93
- C[C@H]1C(=O)CCC2[C@]3(C)CC[C@@]4(C)C5CC(C)(C)CC[C@]5(C)CC[C@]4(C)C3CC[C@@]21C (stereo not given in full): 1.01
- CNC(C)(C)Cc1ccccc1: 1.01
- Cc1ccc(S(=O)(=O)N2CCN(CCOc3ccccc3)CC2)cc1: 0.982
- CC(=O)NC1C(O)OC(COS(=O)(=O)O)C(OC2OC(C(=O)O)C(OC3OC(CO)C(OC4OC(C(=O)O)C(O)C(O)C4OS(=O)(=O)O)C(OS(=O)(=O)O)C3NS(=O)(=O)O)C(O)C2OS(=O)(=O)O)C1O (stereo not given): 0.978
- Oc1cc2c(cc1O)C(c1ccccc1)CNCC2 (stereo not given): 0.992
- O=C(CNc1cccc(Cl)c1)c1ccc(Cl)cc1: 0.975
- Cc1ccc(S(=O)(=O)N2CCCCCC2)cc1: 0.997
- O=C(Cc1ccccc1)NC1CCN(S(=O)(=O)c2ccc(Cl)cc2)CC1: 0.992
- COc1cc(C2Nc3cccc4cccc(c34)N2)cc(OC)c1OC: 1.02
